Target: Caspase-1 (Homo sapiens)
Construct: mixing the compounds with the respective active caspases; purchased BioVision K151-100
Sequence (P29466 120-297 limits assumed): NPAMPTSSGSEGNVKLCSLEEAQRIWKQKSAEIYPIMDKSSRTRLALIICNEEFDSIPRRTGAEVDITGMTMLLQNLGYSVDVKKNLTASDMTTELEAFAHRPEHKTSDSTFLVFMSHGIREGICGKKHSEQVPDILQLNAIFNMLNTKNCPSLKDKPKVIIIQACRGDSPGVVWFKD
Sequence (P29466 317-404 limits assumed): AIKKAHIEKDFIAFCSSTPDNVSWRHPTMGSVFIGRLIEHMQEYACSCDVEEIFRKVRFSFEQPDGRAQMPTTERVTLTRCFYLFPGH
Assay: Caspase-1 inhibitor screening assay (BioVision kit, YVAD-AFC)
Assay type: biochemical
Conditions: read-out: potency (IC50) against caspase-1
In this section we review reported IC50 values for a set of compounds.
Be sure to follow the number with its unit.

Known IC50 results, listed for orientation:
COMPOUND	OBSERVED
CC(C)(C)[C@H](NC(=O)c1ccc2ccccc2n1)C(=O)N1CCC[C@@H]1C(=O)N[C@H](/C=C/S(C)(=O)=O)CC(=O)O	42 nM
CC(C)(C)[C@H](NC(=O)c1ccc(N)c(Cl)c1)C(=O)N1CCCC1C(=O)N[C@H](/C=C/S(C)(=O)=O)CC(=O)O (stereo in doubt)	19 nM
CC(C)[C@H](NC(=O)[C@H](CCC(=O)O)NC(=O)[C@H](Cc1c[nH]c2ccccc12)NC(=O)OCc1ccccc1)C(=O)N[C@H](/C=C/S(C)(=O)=O)CC(=O)O	26 nM

Now for another entry.
Item under review: `CCOC(=O)/C=C/[C@H](CC(=O)O)NC(=O)[C@@H](NC(=O)[C@@H](NC(=O)[C@H](CC(=O)O)NC(=O)OCc1ccccc1)c1ccccc1)C(C)C` . Reported IC50?
1050 nM
